- Test system: 186277-243-T-J2-PDC complex spheroid growth
- method notes: Anticancer human tumor 186277-243-T-J2-PDC patient-derived colon adenocarcinoma cell line growth inhibition [AhR]
- condition parameters: second compound 0.316 µM; first compound 1 µM; stronger effect = lower value
property label: viability, T/C (%)
# unit: % | format: bare number

compound	property label	reading unit	measured value
CC1(C)CCC(CN2CCN(c3ccc(C(=O)NS(=O)(=O)c4ccc(NCC5CCOCC5)c([N+](=O)[O-])c4)c(Oc4cnc5[nH]ccc5c4)c3)CC2)=C(c2ccc(Cl)cc2)C1 + Cc1ccccc1N=Nc1ccc(NC(=O)c2ccnn2C)c(C)c1	viability, T/C	%	100
CC1COCCN1c1cc(C2(S(C)(=N)=O)CC2)nc(-c2ccnc3[nH]ccc23)n1 (stereo not given) + CC(CO)NC(=O)c1cc(-c2ccc(Cl)cc2)nn(-c2cnn(C)c2)c1=O	viability, T/C	%	47.1
COc1cc(Nc2ncc3c(n2)-c2ccc(Cl)cc2C(c2c(F)cccc2OC)=NC3)ccc1C(=O)O + Cc1cncc(-c2nc(NCCc3c[nH]c4ccccc34)c3ncn(C(C)C)c3n2)c1	viability, T/C	%	61.8

Per the records, this compound ( CC(C)c1c(-c2ccccc2)nc2c(C#N)c[nH]n2c1=O + Cc1ccccc1N=Nc1ccc(NC(=O)c2ccnn2C)c(C)c1 ) has viability, T/C equal to 98

Per the records, this compound ( O=C(c1cc(Cc2n[nH]c(=O)c3ccccc23)ccc1F)N1CCN(C(=O)C2CC2)CC1 + Cc1cncc(-c2nc(NCCc3c[nH]c4ccccc34)c3ncn(C(C)C)c3n2)c1 ) has viability, T/C equal to 110

* * *

- Test system: 186277-243-T-J2-PDC complex spheroid growth
- method notes: Anticancer human tumor 186277-243-T-J2-PDC cell line growth inhibition [AhR];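 also: luminescent signal used as a stand-in for viable cell amount; spheroids exposed to compounds for seven days before the viability read; 100% = DMSO vehicle control wells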
- condition parameters: second compound 0.316 µM; first compound 1 µM; stronger effect = lower value
The label is met for viability, T/C below 20% and not met for viability, T/C equal to or exceeding 20%.

compound	assayed target	assigned category
COc1cc(Nc2ncc3c(n2)-c2ccc(Cl)cc2C(c2c(F)cccc2OC)=NC3)ccc1C(=O)O + CC(CO)NC(=O)c1cc(-c2ccc(Cl)cc2)nn(-c2cnn(C)c2)c1=O	186277-243-T-J2-PDC complex spheroid growth	met

Q. Consider O=C(c1cc(Cc2n[nH]c(=O)c3ccccc23)ccc1F)N1CCN(C(=O)C2CC2)CC1 + CC(CO)NC(=O)c1cc(-c2ccc(Cl)cc2)nn(-c2cnn(C)c2)c1=O . Does its viability, T/C lie strictly below 20%?
A. not met

Q. Consider NS(=O)(=O)OCC1CC(n2ccc3c(NC4CCc5ccccc54)ncnc32)CC1O (configuration not stated) + Cc1cncc(-c2nc(NCCc3c[nH]c4ccccc34)c3ncn(C(C)C)c3n2)c1 . Does its viability, T/C lie strictly below 20%?
A. not met

Q. Consider Nc1ncn(C2CC(O)C(CO)O2)c(=O)n1 (configuration not stated) + CC(CO)NC(=O)c1cc(-c2ccc(Cl)cc2)nn(-c2cnn(C)c2)c1=O . Does its viability, T/C lie strictly below 20%?
A. not met

* * *

- System: 186277-243-T-J2-PDC complex spheroid growth
- method notes: Anticancer human tumor 186277-243-T-J2-PDC cell line growth inhibition [AhR];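 also: luminescent signal used as a stand-in for viable cell amount; spheroids exposed to compounds for seven days before the viability read; 100% = DMSO vehicle control wells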
- condition parameters: second compound 3.16 µM; first compound 10 µM; stronger effect = lower value
property label: viability, T/C (%)
# unit: % | format: bare number

// solved cases for viability, T/C follow
compound	viability, T/C (%)
O=C(C=Cc1cccc(S(=O)(=O)Nc2ccccc2)c1)NO + Cc1ccccc1N=Nc1ccc(NC(=O)c2ccnn2C)c(C)c1	3
COc1cc(Nc2ncc3c(n2)-c2ccc(Cl)cc2C(c2c(F)cccc2OC)=NC3)ccc1C(=O)O + Cc1ccccc1N=Nc1ccc(NC(=O)c2ccnn2C)c(C)c1	114
CC(C)c1c(-c2ccccc2)nc2c(C#N)c[nH]n2c1=O + Cc1cncc(-c2nc(NCCc3c[nH]c4ccccc34)c3ncn(C(C)C)c3n2)c1	102

Per the records, this compound ( CC(C)c1c(-c2ccccc2)nc2c(C#N)c[nH]n2c1=O + CC(CO)NC(=O)c1cc(-c2ccc(Cl)cc2)nn(-c2cnn(C)c2)c1=O ) has viability, T/C equal to 95

Per the records, this compound ( Nc1ccn(C2OC(CO)C(O)C2(F)F)c(=O)n1 (configuration not stated) + CC(CO)NC(=O)c1cc(-c2ccc(Cl)cc2)nn(-c2cnn(C)c2)c1=O ) has viability, T/C equal to 4.36

Per the records, this compound ( COc1ccc([C@@H](O)c2cc(-c3ncnc4cc(N5CCOCC5)ccc34)c(F)cc2Cl)nn1 + Cc1cncc(-c2nc(NCCc3c[nH]c4ccccc34)c3ncn(C(C)C)c3n2)c1 ) has viability, T/C equal to 55.7

Per the records, this compound ( CC1(C)CCC(CN2CCN(c3ccc(C(=O)NS(=O)(=O)c4ccc(NCC5CCOCC5)c([N+](=O)[O-])c4)c(Oc4cnc5[nH]ccc5c4)c3)CC2)=C(c2ccc(Cl)cc2)C1 + CC(CO)NC(=O)c1cc(-c2ccc(Cl)cc2)nn(-c2cnn(C)c2)c1=O ) has viability, T/C equal to 10.2
